Reference for the values: PubChem BioAssay AID504329

Field: inhibition. Provide a value for each of the molecules that follow.
Experiment: H1N1 influenza NS1A inhibitors, functional cell based assay (AID 504329)
Conditions: percent inhibition, at 12.5 µM, stronger effect = higher value
Hit rate of the full screen: of about 340,000 compounds, about 1,000 (0.29%) were called active. A selection follows. Entries with a potency or affinity are not part of this list.
Write the answer as a number in %, unit excluded.

Which inhibition value is on record for Cc1ccc(S(=O)(=O)CCC(=O)OCCOc2cccc(Br)c2)cc1 ?
-115

Next: CN1CCN(/N=C/c2ccc(-c3ccccc3)cc2)CC1
10.8

Next: Cc1ccc(N=Nc2c(O)[nH]c(=O)[nH]c2=O)cc1S(=O)(=O)Nc1ccc(Br)cc1
9.19

Next: O=C(NC1=C(Nc2ccc(Cl)cc2)C(=O)c2ccccc2C1=O)c1ccccc1
12.2

Next: CC(=O)COc1cc(C)cc2oc(=O)c(C)c(C)c12
11.6

Next: C=CC[C@@H](CC(=O)N[C@@H](CO)Cc1ccccc1)C(=O)N[C@H](C)COC(=O)[C@@H](CC=C)Cc1ccc(F)cc1
-3.08

Next: CCN1C(=O)/C(=C/C=C2\C=CN(CC)c3ccccc32)SC1=S
21

Next: CCCCCc1cc(=O)oc2c(C(CCN3CCCC(C)C3)c3ccc(OC)cc3)c(OC)cc(OC)c12 (centres undefined)
8.01

Next: Nc1ccc(N=Nc2ccccc2)c2ccccc12
-3.26

Next: CC1CCC/C(=N/Nc2ccc([N+](=O)[O-])cc2[N+](=O)[O-])C1 (centres undefined)
10.6

Next: CC1C/C(=N\Nc2ccc(S(N)(=O)=O)cc2[N+](=O)[O-])CC(C)(C)C1 (centres undefined)
8.9

Next: Oc1ccccc1Nc1ccccn1
-5.39

Next: COC(=O)c1ccc(NC(=S)N2CCC(C(N)=O)CC2)cc1
-11.5

Next: CCCCCc1cc(=O)oc2c(C(CCN(CC)CC)c3ccc(OC)cc3)c(OC)cc(OC)c12 (centres undefined)
5.11

Next: COc1cccc(CNC(=O)COC(=O)C23CC4CC(CC(Cl)(C4)C2)C3)c1
-9.8

Next: CCCCCc1cc(=O)oc2c(C(CCN3CCCCC3)c3ccc(OC)cc3)c(OC)cc(OC)c12 (centres undefined)
18.7

Next: COc1ccc(N2CCN(C(=O)c3c(C)nn(-c4ccccc4)c3C)CC2)cc1
1.11

Next: O=C(CSc1n[nH]c(-c2ccco2)n1)Nc1ccc(F)cc1
7.45

Next: COC(=O)c1sccc1NC(=O)c1ccc(Br)o1
3.08

Next: Cc1ccccc1NC(=O)N(C(C)C)C(C)C
-12.5

Next: CS(=O)(=O)Nc1ccccc1C(=O)OCC(=O)N1CCC(c2ccccc2)=N1
-6.95

Next: Cc1cccc(NC2=C(NC(=O)c3ccccc3)C(=O)c3ccccc3C2=O)c1
28.6

Next: COC(=O)c1cc(C)sc1NC(=S)N1CCN(CCc2ccccc2)CC1
4.17

Next: CN1CCN(/N=C/c2cccc(Cl)c2Cl)CC1
3.86

Next: O=C(O)c1cc(S(=O)(=O)Nc2ccccc2C(=O)O)ccc1O
-2.33

Next: O=C(COc1ccccc1Cl)Nc1ccccc1C(=O)Nc1cccc(C(=O)O)c1
1.12

Next: Cc1cc(C)cc(OCC(=O)Nc2nonc2NC(=O)COc2cc(C)cc(C)c2)c1
-4.28

Next: COc1cc(/C=C2\SC(N)=NC2=O)cc(Cl)c1O
4.85

Next: CCN1C(=O)/C(=C/C=C2/Sc3ccccc3N2CCO)SC1=S
8.17

Next: O=C(COC(=O)c1ccccc1O)NNC(=O)c1ccc(Br)cc1
7.27

Next: O=C(CS(=O)(=O)Cc1ccccc1)N1CCN(C(=O)c2ccco2)CC1
-6.89

Next: CO/N=C/C=C1/N(C)c2ccccc2C1(C)C
11.6

Next: NC(=O)C1CCCc2c1n(Cc1ccccc1)c1ccccc21 (centres undefined)
1.35

Next: CC(NC(=O)CN(c1cccc(C(F)(F)F)c1)S(=O)(=O)c1ccc(Cl)c([N+](=O)[O-])c1)c1ccccc1 (centres undefined)
-1.19

Next: CCN(CC)S(=O)(=O)c1ccc(N2CCOCC2)c(NC(=O)COc2ccccc2C)c1
-22.8

Next: O=[N+]([O-])c1ccccc1N/N=C1\CC2CC=CC12 (centres undefined)
21.6

Next: CSc1cccc(CN2CCN(CCc3ccccc3)C(CCO)C2)c1 (centres undefined)
-1.46

Next: CN(C1=C(NC(=O)c2ccccc2)C(=O)c2ccccc2C1=O)C1CCS(=O)(=O)C1 (centres undefined)
4.18

Next: CCCCCc1cc(=O)oc2c(C(CCN(CC)CC)c3cc(OC)c(OC)c(OC)c3)c(OC)cc(OC)c12 (centres undefined)
9.43

Next: CC1(C)OC(=O)C(=NNc2ccccc2[N+](=O)[O-])C(=O)O1
3.07

Next: O=c1oc2ccccc2cc1-c1ccccc1
-7.16

Next: O=C(CSc1n[nH]c(-c2ccncc2)n1)Nc1ccc(Cl)cc1
-0.89

Next: Cc1ccc(N2CC(NS(=O)(=O)c3cc(F)ccc3F)CC2=O)cc1C (centres undefined)
9.69

Next: O=C(Nc1ccc(Cl)cc1)Nc1ccccn1
-13.9
